Tested on: Ba/F3 P210-BCR-ABL1 RUNX1-/mut (mouse)
Test Description: drug sensitivity score (DSS) (DSS score); higher = more sensitive (stronger growth inhibition); extreme values may be limits of the assay
Answer N if drug sensitivity score is under 5, and Y if it is 5 or more.

[
  {
    "Compound": "CN1CCN(CCOc2cc(OC3CCOCC3)c3c(Nc4c(Cl)ccc5c4OCO5)ncnc3c2)CC1",
    "Class Label": "Y"
  },
  {
    "Compound": "C/C(=C\\c1csc(C)n1)[C@@H]1C[C@@H]2O[C@]2(C)CCC[C@H](C)[C@H](O)[C@@H](C)C(=O)C(C)(C)[C@@H](O)CC(=O)N1 [Ixabepilone]",
    "Class Label": "N"
  },
  {
    "Compound": "CNCc1ccc(-c2[nH]c3cc(F)cc4c3c2CCNC4=O)cc1",
    "Class Label": "N"
  },
  {
    "Compound": "CN1CCN(C(=O)c2ccc3cc(CCNc4ncnc5ccc(C#N)cc45)ccc3c2)CC1",
    "Class Label": "N"
  },
  {
    "Compound": "O=c1[nH]c(C2CCCN2)nc2c1oc1ccc(Cl)cc12 (centres undefined)",
    "Class Label": "N"
  },
  {
    "Compound": "CO[C@@H](C)Cn1c(=O)n(C)c2cnc3ccc(-c4cncc(C(C)(C)O)c4)cc3c21",
    "Class Label": "Y"
  },
  {
    "Compound": "O=C(/C=C\\n1cnc(-c2cc(C(F)(F)F)cc(C(F)(F)F)c2)n1)NNc1cnccn1 [Selinexor]",
    "Class Label": "Y"
  },
  {
    "Compound": "CO[C@@H](C(=O)N1Cc2[nH]nc(NC(=O)c3ccc(N4CCN(C)CC4)cc3)c2C1)c1ccccc1",
    "Class Label": "Y"
  },
  {
    "Compound": "FC(F)(F)c1ccc(CNc2ccc(Cc3c[nH]c4ncc(Cl)cc34)cn2)cn1",
    "Class Label": "N"
  },
  {
    "Compound": "Cc1ccc(Nc2nccc(N(C)c3ccc4c(C)n(C)nc4c3)n2)cc1S(N)(=O)=O",
    "Class Label": "N"
  },
  {
    "Compound": "C/C=C1\\NC(=O)[C@H]2CSSCC/C=C/[C@H](CC(=O)N[C@H](C(C)C)C(=O)N2)OC(=O)[C@H](C(C)C)NC1=O",
    "Class Label": "Y"
  },
  {
    "Compound": "CN1CCN(C2CCC(n3cc(-c4ccc(Oc5ccccc5)cc4)c4c(N)ncnc43)CC2)CC1 (centres undefined)",
    "Class Label": "Y"
  },
  {
    "Compound": "C[C@]1(c2nc3c(C(N)=O)cccc3[nH]2)CCCN1",
    "Class Label": "Y"
  },
  {
    "Compound": "CC(C)NC(=O)COc1cccc(-c2nc(Nc3ccc4[nH]ncc4c3)c3ccccc3n2)c1",
    "Class Label": "N"
  },
  {
    "Compound": "FC(F)c1nc2ccccc2n1-c1nc(N2CCOCC2)nc(N2CCOCC2)n1",
    "Class Label": "Y"
  },
  {
    "Compound": "Cc1nc(=O)c2cc(CN(C)c3ccc(C(=O)N[C@@H](CCC(=O)O)C(=O)O)s3)ccc2[nH]1",
    "Class Label": "Y"
  },
  {
    "Compound": "CN[C@@H](C)C(=O)N[C@H]1CN(C(=O)CC(C)C)CC[C@H]2CC[C@@H](C(=O)NC(c3ccccc3)c3ccccc3)N2C1=O",
    "Class Label": "N"
  },
  {
    "Compound": "CCNc1nc(Nc2cc(F)c(C(=O)N3CCOCC3)cc2OC)ncc1C(F)(F)F",
    "Class Label": "N"
  },
  {
    "Compound": "Cc1ccc(NC(=O)c2ccc(CN3CCN(C)CC3)cc2)cc1Nc1nccc(-c2cccnc2)n1",
    "Class Label": "Y"
  },
  {
    "Compound": "CNc1ncc2cc(-c3cc(NC(=O)NCCC(C)(C)C)c(F)cc3C)c(C)nc2n1",
    "Class Label": "Y"
  },
  {
    "Compound": "CC(C)[C@@H](CS(=O)(=O)C(C)C)N1C(=O)[C@@](C)(CC(=O)O)C[C@H](c2cccc(Cl)c2)[C@H]1c1ccc(Cl)cc1",
    "Class Label": "Y"
  },
  {
    "Compound": "CC1(C)CCC(c2ccc(Cl)cc2)=C(CN2CCN(c3ccc(C(=O)NS(=O)(=O)c4ccc(N[C@H](CCN5CCOCC5)CSc5ccccc5)c(S(=O)(=O)C(F)(F)F)c4)cc3)CC2)C1",
    "Class Label": "N"
  },
  {
    "Compound": "Cc1cc([C@@H](C)Nc2ccccc2C(=O)O)c2nc(N3CCOCC3)cc(=O)n2c1",
    "Class Label": "N"
  },
  {
    "Compound": "Cc1cc(Nc2ncnc3ccc(NC4=NC(C)(C)CO4)cc23)ccc1Oc1ccn2ncnc2c1",
    "Class Label": "N"
  },
  {
    "Compound": "CCN1CCN(Cc2ccc(Nc3ncc(F)c(-c4cc(F)c5nc(C)n(C(C)C)c5c4)n3)nc2)CC1",
    "Class Label": "Y"
  },
  {
    "Compound": "CC(C)(O)CNc1nc(Nc2ccnc(C(F)(F)F)c2)nc(-c2cccc(C(F)(F)F)n2)n1",
    "Class Label": "N"
  },
  {
    "Compound": "CNC(=O)c1ccc2cc([C@@]3(O)CCn4cncc43)ccc2c1",
    "Class Label": "N"
  },
  {
    "Compound": "Nc1nc2cc(-c3ccc4ncc(C(=O)N5CCOCC5)n4c3)ccc2o1",
    "Class Label": "N"
  },
  {
    "Compound": "Cc1c2oc3c(C)ccc(C(=O)N[C@@H]4C(=O)N[C@H](C(C)C)C(=O)N5CCC[C@H]5C(=O)N(C)CC(=O)N(C)[C@@H](C(C)C)C(=O)O[C@@H]4C)c3nc-2c(C(=O)N[C@@H]2C(=O)N[C@H](C(C)C)C(=O)N3CCC[C@H]3C(=O)N(C)CC(=O)N(C)[C@@H](C(C)C)C(=O)O[C@@H]2C)c(N)c1=O",
    "Class Label": "Y"
  }
]
